experimental system: human CXCR4 (human, UniProt P61073 1-352)
Sequence (P61073 whole entry): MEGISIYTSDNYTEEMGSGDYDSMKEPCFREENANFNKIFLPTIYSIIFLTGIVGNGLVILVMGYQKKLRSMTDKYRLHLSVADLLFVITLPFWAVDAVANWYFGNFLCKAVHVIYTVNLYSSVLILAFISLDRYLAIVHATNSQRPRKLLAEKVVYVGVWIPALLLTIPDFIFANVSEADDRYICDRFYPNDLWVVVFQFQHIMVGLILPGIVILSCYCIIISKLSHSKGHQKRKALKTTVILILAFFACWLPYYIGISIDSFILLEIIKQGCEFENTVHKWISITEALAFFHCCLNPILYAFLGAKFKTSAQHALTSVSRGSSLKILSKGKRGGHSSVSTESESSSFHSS
measurement description: cell-based or functional assay
# Jurkat chemotaxis inhibition IC50 values compiled below

binder	Jurkat chemotaxis inhibition IC50 / µg/mL
6C7 (antibody, V domains shown, Fully human monoclonal antibody from XenoMouse hybridoma; also called antibody 6C7; mAb 6C7) VH: QVQLVESGGGVVQPGRSLRLSCAASGFTFSNYVMHWVRQAPGKGLEWVAVIWYDGSNKYYADSVKGRFTISRDNSKNTLSLQMNSLRAEDTAVYYCERGEGYYGSGSRYRGYYYGMDVWGQGTTVTVSS VL: DIQMTQSPSSLSASVGDRVTITCRASQGIRTDLGWYQQKPGKAPKRLIYAASSLQSGVPSRFSGSGSGTEFTLTISSLQPEDFATYYCLQHNSYPRTFGQGTKVEIK	0.0112
7C8 (antibody, V domains shown, Fully human monoclonal antibody from XenoMouse hybridoma) VH: QVQLVESGGGVVQPGRSLRLSCAASGFTFSSYGMHWVRQAPGKGLEWVAVIWYDGTYKYYADSVRGRFTISRDNSKNTLYLQMNSLRAEDTAVYYCARGPLLRYFDWLSDYWGQGTLVTVSS VL: DIQMTQSPSSLSASVGDRVTITCRASQGIRNDLGWYQQKPGKAPKRLIYAATSLQSGVPSRFSGSGSGTEFTLTISSLQPEDFATYYCLQHNNYPRTFGGGTKVEIK	0.236
4C1 (antibody, V domains shown, Fully human monoclonal antibody from XenoMouse hybridoma (strains XMG2 IgG2 or XMG4 IgG4, kappa/lambda); Tested as hybridoma supernatant or purified antibody; also called mAb 4C1; Mab4C1) VH: QVQLVESGGGVVQPGRSLRLSCAASGFTFSSYGMHWVRQAPGKGLEWVAVISYDGSNKYYADSVKGRFTISRDNSKNTLYLQMNSLRAEDTAVYYCTRGGLAARRNYYYSYGMDVWGQGTTVTVSS VL: DIQMTQSPSSLSASVGDRVTITCRASQDIRNDLGWYQQKPGKAPKRLIYAASSLQSGVPSRFSGSGSGTQFTLTISSLQPEDFATYYCLQHNSYPLTFGGGTKVQIK	0.182
5C9 (antibody, V domains shown, Fully human monoclonal antibody from XenoMouse hybridoma (lambda light chain)) VH: QVQLVESGGGVVQPGRSLRLSCAASGFTFSSYGLHWVRQSPGKGLEWVAVISYDGSKKYYADSVKGRFSISRDNSKNTLYLQMNSLRAEDTAVYYCARDRPSRYSSCMDVWGQGTTVTVSS VL: QSALTQPASVSGSPGQSITISCTGTSSDVGSNNFVSWYQQHPGKAPKLMIYEVSKRPSGVSNRFSGSKSGNTASLTISGLQAEDEADYYCCSYAGSNTLVFGGGTKLTVL	4.22
